# tested target: full length Udorn AM2 protein (Influenza A virus)
# Sequence (P0DOF5 whole entry, looked up): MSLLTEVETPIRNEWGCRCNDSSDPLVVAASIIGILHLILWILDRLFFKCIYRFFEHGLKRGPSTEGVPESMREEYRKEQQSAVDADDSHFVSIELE
# method summary: Two-electrode voltage clamp
# Type: cell-based, influenza virus A/Udorn/72
# measurement context: tested at 100 μM
recorded endpoint: inhibitory activity against AM2 (in words)

[[record]]
compound = "NC(=O)N1CCC2(CCCCC2)CC1 [Compound 12, 3-Azaspiro[5,5]undecane-3-carboxamide]"
result = "not active"

[[record]]
compound = "c1c[nH]c(CN2CCC3(CCCCC3)CC2)n1 [Compound 8]"
result = "moderate inhibition"

[[record]]
compound = "c1nc(CN2CCC3(CCCCC3)CC2)c[nH]1 [Compound 7]"
result = "moderate inhibition"

[[record]]
compound = "NC(=S)N1CCC2(CCCCC2)CC1 [Compound 13, 3-Azaspiro[5,5]undecane-3-carbothioamide]"
result = "not active"

